- System: A673/TR/shEF
- test name: cell viability (LOESS-normalised, relative to median of negative controls) (log2 ratio); higher = more viable cells (less compound effect), active = hit call of the paper (over 3 MAD below the median)
- test context: 0.25 µM; library screen: screen2; EWS-FLI1 expression: low (doxycycline-induced shRNA knockdown); treatment time: 72 h
Screen size: about 3,200 compounds; about 300 (9.4%) showed activity. Many of the other results were omitted from the sample, so actives are more common in it than they were.
measured quantity: cell viability (log2)

Input line: Fill in the blank: the reported cell viability (log2) of Nc1ncnc2c1nc(Br)n2C1OC2COP(=O)(O)OC2C1O (stereo unspecified) is ____.
Output line: 0.0361 (inactive)

Input line: Item: "O=C(CCCCCCC(=O)Nc1ccccc1)NO"
Output line: 0.101 (inactive)

Input line: Item: "Cc1ccc(C(=O)Nc2ccc(S(=O)(=O)O)c3cc(S(=O)(=O)O)cc(S(=O)(=O)O)c23)cc1NC(=O)c1cccc(NC(=O)Nc2cccc(C(=O)Nc3cc(C(=O)Nc4ccc(S(=O)(=O)O)c5cc(S(=O)(=O)O)cc(S(=O)(=O)O)c45)ccc3C)c2)c1"
Output line: -2.91 (active)

Input line: Item: "COc1cc(/C=C(\C#N)C(=O)c2ccc(O)c(O)c2)cc(I)c1O"
Output line: 0.068 (inactive)

Input line: Item: "CNC(=O)c1cc2c(cn1)[nH]c1ccccc12"
Output line: 0.0456 (inactive)

Input line: Item: CCCCCCCCCC(=O)NC(CN1CCOCC1)C(O)c1ccccc1 (stereo unspecified)
Output line: -0.533 (active)

Input line: Item: "COC(=O)/C=C/c1cc(O)ccc1O"
Output line: 0.184 (inactive)

Input line: Item: "CC(=O)O[C@H]1C(=O)[C@@]2(C)[C@H]([C@H](OC(=O)c3ccccc3)[C@]3(O)C[C@H](OC(=O)[C@H](O)[C@@H](NC(=O)c4ccccc4)c4ccccc4)C(C)=C1C3(C)C)[C@]1(OC(C)=O)CO[C@@H]1C[C@@H]2O"
Output line: -0.868 (active)

Input line: Item: "O=c1c(-c2ccc(O)cc2)coc2cc(O)ccc12"
Output line: 0.099 (inactive)

Input line: Item: "OC[C@H]1O[C@@H](n2cnc3c(NC4CCCC4)nc(Cl)nc32)[C@H](O)[C@@H]1O"
Output line: 0.038 (inactive)

Input line: Item: "Cc1ccc(S(=O)(=O)N[C@@H](Cc2ccccc2)C(=O)CCl)cc1"
Output line: 0.0223 (inactive)

###

- System: A673/TR/shEF
- test name: cell viability (LOESS-normalised, relative to median of negative controls) (log2 ratio); higher = more viable cells (less compound effect), active = hit call of the paper (over 3 MAD below the median)
- test context: 0.25 µM; library screen: screen1; EWS-FLI1 expression: high (no doxycycline); treatment time: 72 h
Out of some 3,200 compounds screened, about 300 (9.4%) showed activity. The sample as a whole holds a higher share of actives than the screen did.
Property: cell viability (log2); scope: individual molecules
Provide a numeric answer; units are not to be included.

{"columns": ["molecule", "measured quantity", "experimental result"],
 "data": [
  ["O=C(Oc1cc(O)c2c(c1)O[C@H](c1cc(O)c(OC(=O)c3cc(O)c(O)c(O)c3)c3c(O)c(=O)cc(C4Oc5cc(O)cc(O)c5C[C@H]4O)cc13)[C@H](O)C2)c1cc(O)c(O)c(O)c1 (stereo partly specified)", "cell viability (log2)", 0.0686],
  ["C=C1C(=O)O[C@@H]2C[C@@]3(C)CCC[C@H](C)C3=C[C@H]12", "cell viability (log2)", 0.0724],
  ["CC(=O)c1c(O)c(C)c(O)c2c1oc1c(C(C)=O)c(O)c(C)c(O)c12", "cell viability (log2)", 0.0278]
]}

Input line: Fill in the blank: the reported cell viability (log2) of "COc1ccc(CN2CCN(Cc3cc(OC)c(OC)c(OC)c3)CC2)cc1" is ____.
Output line: 0.174

Input line: Item: CCC(C)C(=O)c1c(O)c(C)c2oc3c(C)c(O)c(C(=O)C(C)CC)c(O)c3c2c1O (stereo unspecified)
Output line: 0.0233

Input line: Item: "COc1cc2occ(-c3ccc(O)cc3)c(=O)c2c(OC)c1O"
Output line: 0.0883
